Data credit: patent US20130196986A1

Provide the reported IC50 of each item.
# target_of_assay: P2X7 receptor (Homo sapiens, UniProt Q99572)
# Construct: stably expressing the full length P2X7 receptor
# Sequence (Q99572 whole entry): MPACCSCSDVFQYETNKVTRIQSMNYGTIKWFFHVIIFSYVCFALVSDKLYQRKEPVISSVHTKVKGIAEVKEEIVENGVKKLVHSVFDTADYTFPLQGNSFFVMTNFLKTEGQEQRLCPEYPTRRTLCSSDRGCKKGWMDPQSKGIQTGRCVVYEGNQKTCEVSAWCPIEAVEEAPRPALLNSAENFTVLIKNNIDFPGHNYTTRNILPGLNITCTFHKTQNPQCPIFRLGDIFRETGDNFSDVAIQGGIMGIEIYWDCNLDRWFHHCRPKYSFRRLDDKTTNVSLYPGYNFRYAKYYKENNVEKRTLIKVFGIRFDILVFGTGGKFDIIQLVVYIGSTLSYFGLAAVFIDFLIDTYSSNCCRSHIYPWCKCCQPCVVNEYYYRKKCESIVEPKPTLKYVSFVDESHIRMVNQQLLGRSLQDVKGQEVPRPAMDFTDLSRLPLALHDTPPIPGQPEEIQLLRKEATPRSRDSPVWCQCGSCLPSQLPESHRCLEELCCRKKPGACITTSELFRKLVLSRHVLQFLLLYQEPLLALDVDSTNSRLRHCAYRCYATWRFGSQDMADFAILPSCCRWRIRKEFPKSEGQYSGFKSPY
# assay_method_text: Ca++ flux assay (FLIPR) in P2X7-HEK-293 cell line stably expressing the full length P2X7 receptor, Bz-ATP activation
# test_settings: P2X7-HEK-293 cells; agonist Bz-ATP; fluorescence as total area over 90 seconds; read-out: P2X7 Ca Flux hu IC50
Provide the reading as a plain figure in nM.

Please report the recorded IC50 for Cc1c(Cl)cccc1-n1ccn2c(SCc3cc(Cl)cc(Cl)c3)nnc2c1=O [Compound 101] . 167

Name the reported IC50 value associated with the compound Cc1c(-n2ccn3c(SCc4cccc(F)c4Cl)nnc3c2=O)cccc1C(F)(F)F [Compound 13] 130

Name the reported IC50 value associated with the compound Cc1c(Cl)cccc1-n1ccn2c(SCc3ccccc3Cc3ccccc3)nnc2c1=O [Compound 45] 176

Form field: reported IC50 of Cc1c(Cl)cccc1-n1ccn2c(SCc3ccccc3-c3cccnc3)nnc2c1=O [Compound 36] 147

Look up IC50 for this compound: Cc1c(-n2ccn3c([S+]([O-])Cc4ccccc4)nnc3c2=O)cccc1C(F)(F)F (centres unmarked) [Compound 117] 76.5

Requested read-out: IC50. Entry: Cc1c(-n2ccn3c(S(=O)(=O)Cc4ccsc4)nnc3c2=O)cccc1C(F)(F)F [Compound 123] 12.4

Bench note: what IC50 did Cc1ccccc1CSc1nnc2c(=O)n(-c3cccc(C(F)(F)F)c3C)ccn12 [Compound 57] show? 86.4

I would be grateful if you could share the reported IC50 for Cc1c(-n2ccn3c(SCc4ccsc4)nnc3c2=O)cccc1C(F)(F)F [Compound 14] . 38.1

====

# target_of_assay: P2X7 receptor (Homo sapiens, UniProt Q99572)
# Construct: stably expressing the full length P2X7 receptor
# assay_method_text: Ca++ flux assay (FLIPR) in P2X7-HEK-293 cell line stably expressing the full length P2X7 receptor, Bz-ATP activation
# test_settings: P2X7-HEK-293 cells; agonist Bz-ATP; fluorescence as total area over 90 seconds; read-out: P2X7 Ca Flux hu IC50
Rule for this label: true means IC50 is less than 400 nM; false means IC50 is at least 400 nM.

Is the reported IC50 for Cc1cccc(-c2ccccc2CS(=O)(=O)c2nnc3c(=O)n(-c4cccc(C(F)(F)F)c4C)ccn23)c1 [Compound 152] strictly below 400 nM? true

Given the entry Cc1c(-n2ccn3c(SCc4ccccc4Br)nnc3c2=O)cccc1C(F)(F)F , would its reported IC50 be below 400 nM? true

Take the molecule Cc1c(Cl)cccc1-n1ccn2c(NCCc3ccccc3)nnc2c1=O and say whether its IC50 is less than 400 nM. false

In the record for Cc1c(-n2ccn3c(SCc4cccs4)nnc3c2=O)cccc1C(F)(F)F , is IC50 less than 400 nM? true

Problem: For the molecule Cc1c(-n2ccn3c(SC(C)c4ccccc4)nnc3c2=O)cccc1C(F)(F)F (stereo not drawn) , is IC50 under 400 nM? true

Just wondering, is IC50 of Cc1c(-n2ccn3c(S(=O)(=O)CC(=O)c4ccccc4)nnc3c2=O)cccc1C(F)(F)F below 400 nM? false

Field: below-cutoff. Rule: recorded IC50 strictly less than 400 nM. Subject: Cc1c(-n2ccn3c(S(=O)(=O)Cc4ccc(Cl)s4)nnc3c2=O)cccc1C(F)(F)F true

For Cc1c(Cl)cccc1-n1ccn2c(SCc3ccccc3Br)nnc2c1=O , is the recorded IC50 below the cut-off of 400 nM? true

Dear reviewer, please state whether O=c1c2nnc(SCc3ccccc3)n2ccn1-c1cccc(Cl)c1F has IC50 strictly beneath 400 nM. true

Strictly below 400 nM: is that where IC50 of Cc1c(Cl)cccc1-n1ccn2c(SCc3cccnc3)nnc2c1=O sits? false

Is 400 nM strictly greater than the molecule's reported IC50? molecule: Cc1c(Cl)cccc1-n1ccn2c(SCc3ccccc3-c3ccco3)nnc2c1=O true

Is it true that IC50 reported for Cc1c(-n2ccn3c(SCc4ccccc4Oc4ccccc4)nnc3c2=O)cccc1C(F)(F)F is less than 400 nM? true

# check: IC50 < 400 nM for Cc1c(Cl)cccc1-n1ccn2c(S(=O)(=O)Cc3ccc(Cl)cc3)nnc2c1=O true

Strictly below 400 nM in IC50? Cc1c(Cl)cccc1-n1ccn2c(SCc3ccccc3CN3CCOCC3)nnc2c1=O false

Determine whether this molecule shows IC50 lower than 400 nM (ties excluded): Cc1c(Cl)cccc1-n1ccn2c(SCc3cccc(-c4ccccc4)c3)nnc2c1=O false

Dear colleague, could you confirm whether IC50 of Cc1c(Cl)cccc1-n1ccn2c(SCc3ccccc3COc3ccccc3)nnc2c1=O falls below 400 nM? Thanks. true

Given the entry Cc1c(Cl)cccc1-n1ccn2c(SCc3cc(Cl)cc(C(F)(F)F)c3)nnc2c1=O , would its reported IC50 be below 400 nM? false

API: query returns whether the molecule falls strictly under 400 nM in IC50. Query: Cc1c(Cl)cccc1-n1ccn2c(SCc3ccccc3CS(=O)(=O)c3ccccc3)nnc2c1=O true

Decide: IC50 of COc1ccccc1CSc1nnc2c(=O)n(-c3cccc(Cl)c3C)ccn12 strictly below 400 nM? false

IC50 under 400 nM? Item: Cc1c(-n2ccn3c(S(C)(=O)=O)nnc3c2=O)cccc1C(F)(F)F false

In plain terms, does Cc1c(-n2ccn3c(S(=O)(=O)Cc4ccccc4)nnc3c2=O)cccc1C(F)(F)F come in under 400 nM for IC50? true

Hi there! Is IC50 for Cc1c(Cl)cccc1-n1ccn2c(SCc3c(F)c(F)c(F)c(F)c3F)nnc2c1=O below 400 nM, do you know? true

Field: below-cutoff. Rule: recorded IC50 strictly less than 400 nM. Subject: Cc1c(Cl)cccc1-n1ccn2c(S(=O)(=O)Cc3ccccc3C(C)(C)C)nnc2c1=O true

Strictly below 400 nM: is that where IC50 of Cc1c(Cl)cccc1-n1ccn2c(SCc3ccccc3C#N)nnc2c1=O sits? false

In plain terms, does Cc1c(Cl)cccc1-n1ccn2c(SCc3ccccc3SC(F)(F)F)nnc2c1=O come in under 400 nM for IC50? true

Record Cc1c(-n2ccn3c(S(=O)(=O)Cc4ccccc4Oc4ccccc4)nnc3c2=O)cccc1C(F)(F)F : is its IC50 strictly below 400 nM? true

Given the entry Cc1c(Cl)cccc1-n1ccn2c(SC(=O)N(C)c3ccccc3)nnc2c1=O , would its reported IC50 be below 400 nM? false

API: query returns whether the molecule falls strictly under 400 nM in IC50. Query: Cc1c(Cl)cccc1-n1ccn2c(SCc3cc(F)c(F)c(F)c3)nnc2c1=O false

Record Cc1nc(CSc2nnc3c(=O)n(-c4cccc(Cl)c4C)ccn23)cs1 : is its IC50 strictly below 400 nM? false

Here's an entry: Cc1c(-n2ccn3c(SCc4ccccc4OC(F)(F)F)nnc3c2=O)cccc1C(F)(F)F . Is its IC50 below 400 nM? true

Lab log: compare recorded IC50 with 400 nM; is it strictly lower for O=c1c2nnc(SC(c3ccccc3)c3ccccc3)n2ccn1-c1cccc(C(F)(F)F)c1Cl ? true

Consider the molecule Cc1c(Cl)cccc1-n1ccn2c(NC(c3ccccc3)c3ccccc3)nnc2c1=O . Is its IC50 strictly less than 400 nM? false

hey, is IC50 for O=c1c2nnc(SC3c4ccccc4-c4ccccc43)n2ccn1-c1cccc(C(F)(F)F)c1Cl lower than 400 nM or not? true

====

Could you please report measured pIC50 for the items listed next?
# target_of_assay: P2X7 receptor (Homo sapiens, UniProt Q99572)
# Construct: stably expressing the full length P2X7 receptor
# assay_method_text: Ca++ flux assay (FLIPR) in P2X7-HEK-293 cell line stably expressing the full length P2X7 receptor, Bz-ATP activation
# test_settings: P2X7-HEK-293 cells; agonist Bz-ATP; fluorescence as total area over 90 seconds; read-out: P2X7 Ca Flux hu IC50
Kindly note that pIC50 refers to -log10 of the concentration in mol/L and answer with the value alone.

Consider the molecule shown here: Cc1c(Cl)cccc1-n1ccn2c(SCc3ccc(C(C)C)cc3)nnc2c1=O [Compound 104] What is its recorded pIC50? 5.56

Dear colleague, I am looking for the recorded pIC50 of the following molecule: Cc1c(Cl)cccc1-n1ccn2c(N(C)Cc3ccccc3)nnc2c1=O [Compound 169] 5.80

Entry Cc1c(Cl)cccc1-n1ccn2c(SCc3ccccc3C(F)(F)F)nnc2c1=O [Compound 111] : reported pIC50 = ? 6.29

What measured pIC50 goes with Cc1ccc(-c2ccccc2CS(=O)(=O)c2nnc3c(=O)n(-c4cccc(C(F)(F)F)c4C)ccn23)s1 [Compound 141] ? 7.43

Report pIC50 for Cc1c(-n2ccn3c(SCc4ccccc4-c4ccc(Cl)cc4)nnc3c2=O)cccc1C(F)(F)F [Compound 9] please. 6.99

Recorded pIC50 for Cc1c(-n2ccn3c(S(=O)(=O)Cc4ccccc4-c4ccc(F)cc4)nnc3c2=O)cccc1C(F)(F)F [Compound 138] , please? 7.51

Given Cc1c(Cl)cccc1-n1ccn2c(S(=O)(=O)Cc3ccccc3-c3ccccc3)nnc2c1=O [Compound 155] , state its recorded pIC50. 7.27

If you can, please state the reported pIC50 value of Cc1c(Cl)cccc1-n1ccn2c(SCc3cccc(OC(F)(F)F)c3)nnc2c1=O [Compound 85] . 6.30

// pIC50 lookup, key: Cc1c(-n2ccn3c(S(=O)(=O)Cc4ccccc4F)nnc3c2=O)cccc1C(F)(F)F [Compound 120] 7.93

Which measured pIC50 value corresponds to Cc1c(-n2ccn3c(S(=O)(=O)Cc4ccccc4-c4ccccc4)nnc3c2=O)cccc1C(F)(F)F [Compound 126] ? 7.80

Record request: pIC50 value, item Cc1c(Cl)cccc1-n1ccn2c(SCc3cccc(F)c3Cl)nnc2c1=O [Compound 16] 6.54

Name the recorded pIC50 for [2H]c1c([2H])c([2H])c(CSc2nnc3c(=O)n(-c4cccc(C(F)(F)F)c4C)ccn23)c([2H])c1[2H] [Compound 21] . 7.07

Param item = Cc1onc(-c2ccccc2)c1CSc1nnc2c(=O)n(-c3cccc(C(F)(F)F)c3C)ccn12 [Compound 17] ; retrieve measured pIC50. 6.26

What value of measured pIC50 is listed for Cc1c(Cl)cccc1-n1ccn2c(SCc3ccccc3OC(F)(F)F)nnc2c1=O [Compound 70] ? 6.95

What value of measured pIC50 is listed for Cc1c(-n2ccn3c(SC(C(=O)c4ccccc4)c4ccccc4)nnc3c2=O)cccc1C(F)(F)F (stereo not shown) [Compound 22] ? 5.84

Recorded pIC50 of Cc1c(-n2ccn3c(SCc4ccccc4)nnc3c2=O)cccc1C(F)(F)F [Compound 93] , please. 7.42
